subject of test: T1, COVID S1 RBM Fc fusion (Antigen 2) (SARS-CoV-2, UniProt P0DTC2 437-508)
T1 construct: domain: RBM
assay remarks: phage ELISA
Criterion: specificity ELISA, fold over background strictly under 1 fold over background. Met: condition met. Not met: condition not met.

* SARS-CoV-2 variant 1-44 (antibody, V domains shown) VH: EVQLLESGGGLVQPGGSLRLSCAASGFTFSSQAMSWVRQAPGKGLEWVTAISGSGGGTYYADSVKGRFTISRDNSKNTLYLQMNSLRAEDTAVYYCAKDRKFGEFDPWGQGTLVTVSS VL: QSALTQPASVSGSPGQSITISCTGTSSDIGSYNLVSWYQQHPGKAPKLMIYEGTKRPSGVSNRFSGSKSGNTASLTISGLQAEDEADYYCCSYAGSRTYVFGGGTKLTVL | condition met
* SARS-CoV-2 variant 1-48 (antibody, V domains shown) VH: EVQLLESGGGLVQPGGSLRLSCAASGFTFSSHAMYWVRQAPGKGLEWVSAISGSAGSTYYADSVKGRFTISRDNSKNTLYLQMNSLRAEDTAVYYCAHDTKDFWSGYCIFDPWGQGTLVTVSS VL: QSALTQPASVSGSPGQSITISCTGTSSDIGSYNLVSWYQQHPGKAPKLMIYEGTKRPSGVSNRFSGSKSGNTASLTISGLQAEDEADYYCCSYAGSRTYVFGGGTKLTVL | condition met

INPUT: Is specificity ELISA, fold over background strictly under 1 fold over background for the entry SARS-CoV-2 variant 1-39 (antibody, V domains shown) VH: EVQLLESGGGLVQPGGSLRLSCAASGFTFSSYAMYWVRQAPGKGLEWVTAISGSGGSTFYADSVKGRFTISRDNSKNTLYLQMNSLRAEDTAVYYCTRPPYGYYGDYWGQGTLVTVSS VL: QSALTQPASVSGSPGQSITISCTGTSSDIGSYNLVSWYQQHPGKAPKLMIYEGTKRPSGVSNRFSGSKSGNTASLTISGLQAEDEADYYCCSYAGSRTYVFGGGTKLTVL ?
OUTPUT: condition not met

INPUT: Is specificity ELISA, fold over background strictly under 1 fold over background for the entry SARS-CoV-2 variant 1-3 (antibody, V domains shown) VH: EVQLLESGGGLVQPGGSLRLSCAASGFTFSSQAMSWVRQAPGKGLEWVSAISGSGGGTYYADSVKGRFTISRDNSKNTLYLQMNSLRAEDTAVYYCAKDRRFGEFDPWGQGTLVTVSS VL: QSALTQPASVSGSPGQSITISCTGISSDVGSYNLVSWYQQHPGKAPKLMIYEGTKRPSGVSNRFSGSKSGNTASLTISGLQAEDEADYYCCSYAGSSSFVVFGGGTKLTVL ?
OUTPUT: condition not met

INPUT: Is specificity ELISA, fold over background strictly under 1 fold over background for the entry SARS-CoV-2 variant 1-23 (antibody, V domains shown) VH: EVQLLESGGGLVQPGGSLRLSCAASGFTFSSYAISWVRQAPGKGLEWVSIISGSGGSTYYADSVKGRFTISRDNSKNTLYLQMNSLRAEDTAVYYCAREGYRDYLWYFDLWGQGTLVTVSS VL: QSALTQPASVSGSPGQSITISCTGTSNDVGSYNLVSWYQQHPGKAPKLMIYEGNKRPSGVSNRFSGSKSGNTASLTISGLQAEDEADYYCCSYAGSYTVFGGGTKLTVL ?
OUTPUT: condition not met

INPUT: Is specificity ELISA, fold over background strictly under 1 fold over background for the entry SARS-CoV-2 variant 1-31 (antibody, V domains shown) VH: EVQLLESGGGLVQPGGSLRLSCAASGFTFSSYAMNWVRQAPGKGLEWVSAISGSGGSTFYADSVKGRFTISRDNSKNTLYLQMNSLRAEDTAVYYCTRPPYGDYGDYWGQGTLVTVSS VL: QSALTQPASVSGSPGQSITISCTGTSSDVGKYNLVSWYQQHPGKAPKLMIYEGSQRPSGVSNRFSGSKSGNTASLTISGLQAEDEADYYCCSYAGSRTPVVFGGGTKLTVL ?
OUTPUT: condition not met
